Source of measurements: the supplement of paper PMC10126150

Recorded switch fluorescence ratio for the following sequences
# Tested on: ATP;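 further: ATP exposure 15 min at 22 °C before imaging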
# assay-procedure: switch fluorescence ratio, 500 uM ATP over buffer (Cy3 cluster intensity, sum of 5 cycles each) (fold (ratio)); higher = stronger signal-on switching upon ATP binding; sequences stand for … in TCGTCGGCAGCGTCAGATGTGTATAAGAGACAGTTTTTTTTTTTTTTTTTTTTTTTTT…TC
# measurement-setup: aptamer strand: ATP DNA aptamer (quencher-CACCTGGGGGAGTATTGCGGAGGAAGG + anchor), 100 nM annealed; ATP concentration: 500 uM
Write the number on its own, no unit after it.

ATAACGGCCT : 1.01
ATAGCGTATT : 0.998
ATTACACTGC : 1.01
ATGGGTTGTT : 1.01
GCGTACTCAA : 1.11
CGTGCCGGGG : 0.968
CCTGCCTCCT : 2.27
AGGGGAGTTT : 1

Sure, the documented switch fluorescence ratio for TGCGTTCGGC is 0.963

Sure, the documented switch fluorescence ratio for AAGGGGGAAC is 1

Sure, the documented switch fluorescence ratio for CTAGGTTAAA is 0.988

Sure, the documented switch fluorescence ratio for TCACTTTGTG is 1.01

Sure, the documented switch fluorescence ratio for TGGATGATTG is 0.984

* * *

# Tested on: ATP;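 further: ATP exposure 15 min at 22 °C before imaging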
# assay-procedure: switch fluorescence ratio, 500 uM ATP over buffer (Cy3 cluster intensity, sum of 5 cycles each) (fold (ratio)); higher = stronger signal-on switching upon ATP binding; sequences stand for … in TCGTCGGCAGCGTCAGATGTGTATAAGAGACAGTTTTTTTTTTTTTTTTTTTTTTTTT…TC
# measurement-setup: aptamer strand: ATP DNA aptamer (quencher-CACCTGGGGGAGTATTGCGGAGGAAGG + anchor), 100 nM annealed; ATP concentration: 500 uM
quantity: switch fluorescence ratio
Write the number on its own, no unit after it.

GGGGGGCCGA : 1.01
CGTGAGTGGT : 1.02

Sure, the documented switch fluorescence ratio for CGGGGTTGCT is 1.03

Sure, the documented switch fluorescence ratio for CGTTGCCGCT is 0.934

Sure, the documented switch fluorescence ratio for TCGGGTATAT is 1

Sure, the documented switch fluorescence ratio for TCACAATTTA is 0.977

Sure, the documented switch fluorescence ratio for CATGTATGCT is 1

Sure, the documented switch fluorescence ratio for GTTTCGAGCG is 1.03

Sure, the documented switch fluorescence ratio for ATTTAATTGT is 0.986

* * *

# System: ATP;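 further: ATP exposure 15 min at 22 °C before imaging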
# assay-procedure: switch fluorescence ratio, 500 uM ATP over buffer (Cy3 cluster intensity, sum of 5 cycles each) (fold (ratio)); higher = stronger signal-on switching upon ATP binding; sequences stand for … in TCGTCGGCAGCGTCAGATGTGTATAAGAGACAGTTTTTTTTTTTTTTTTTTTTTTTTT…TC
# measurement-setup: aptamer strand: ATP DNA aptamer (quencher-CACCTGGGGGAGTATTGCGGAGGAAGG + anchor), 100 nM annealed; ATP concentration: 500 uM
Recorded switch fluorescence ratio for the following sequences

GTAATAAAAT : 0.971
CTGGTTTTGC : 0.998
CTAACAATAA : 1.05
TTCGGGAGCC : 1
TTGCACAATT : 1.01
TTTTGTTGT : 0.987
ATCGAGGGA : 0.995
AGACGGGGCT : 0.975

API: the following record is the query input.
Sure, the documented switch fluorescence ratio for CGGGGGTCGG is 0.978

* * *

Recorded switch fluorescence ratio for the following sequences
# Tested on: ATP;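 further: ATP exposure 15 min at 22 °C before imaging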
# assay-procedure: switch fluorescence ratio, 500 uM ATP over buffer (Cy3 cluster intensity, sum of 5 cycles each) (fold (ratio)); higher = stronger signal-on switching upon ATP binding; sequences stand for … in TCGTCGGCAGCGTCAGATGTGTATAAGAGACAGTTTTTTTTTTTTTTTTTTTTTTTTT…TC
# measurement-setup: aptamer strand: ATP DNA aptamer (quencher-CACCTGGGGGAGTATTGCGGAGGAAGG + anchor), 100 nM annealed; ATP concentration: 500 uM
Write the number on its own, no unit after it.

Answered examples (5):
TGCGGGAGGG : 1.26
AATGGGGATG : 0.998
TTATGTGGTG : 0.974
TTGGGGCCAA : 1.01
AATGTGCAGT : 0.963

Sure, the documented switch fluorescence ratio for AAGAATATGC is 0.978

Sure, the documented switch fluorescence ratio for TTGAGGTGCG is 1.01

* * *

# System: ATP;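 further: ATP exposure 15 min at 22 °C before imaging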
# assay-procedure: switch fluorescence ratio, 500 uM ATP over buffer (Cy3 cluster intensity, sum of 5 cycles each) (fold (ratio)); higher = stronger signal-on switching upon ATP binding; sequences stand for … in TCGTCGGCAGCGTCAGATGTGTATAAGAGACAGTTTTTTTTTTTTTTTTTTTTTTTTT…TC
# measurement-setup: aptamer strand: ATP DNA aptamer (quencher-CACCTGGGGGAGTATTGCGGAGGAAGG + anchor), 100 nM annealed; ATP concentration: 500 uM
quantity: switch fluorescence ratio
Write the number on its own, no unit after it.

Answered examples (4):
GAGGGGGGAT : 1.01
GAAGGGGATA : 1.01
TTGGGTGGAG : 0.991
TAAGGCCCGG : 1

Sure, the documented switch fluorescence ratio for GGATTTGATG is 1

Sure, the documented switch fluorescence ratio for ATGTTGGTTG is 1.03

Sure, the documented switch fluorescence ratio for TTTCTCGTCG is 1

Sure, the documented switch fluorescence ratio for CACTGGCCGA is 1.04

* * *

# Test system: ATP;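 further: ATP exposure 15 min at 22 °C before imaging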
# assay-procedure: switch fluorescence ratio, 500 uM ATP over buffer (Cy3 cluster intensity, sum of 5 cycles each) (fold (ratio)); higher = stronger signal-on switching upon ATP binding; sequences stand for … in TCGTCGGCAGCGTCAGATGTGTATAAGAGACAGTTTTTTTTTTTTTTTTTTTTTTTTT…TC
# measurement-setup: aptamer strand: ATP DNA aptamer (quencher-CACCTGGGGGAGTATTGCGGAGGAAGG + anchor), 100 nM annealed; ATP concentration: 500 uM
quantity: switch fluorescence ratio

TAGGTGGGGG : 1.01
TGGCTGGTAA : 0.991
GGCGAAGTTC : 0.99
GGGATGAACG : 1.04
TCGGTAGCAG : 1.09
CGAGTCCCAC : 1

API: the following record is the query input.
Sure, the documented switch fluorescence ratio for TTTGACAGTG is 0.966

* * *

# Tested on: ATP;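 further: ATP exposure 15 min at 22 °C before imaging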
# assay-procedure: switch fluorescence ratio, 500 uM ATP over buffer (Cy3 cluster intensity, sum of 5 cycles each) (fold (ratio)); higher = stronger signal-on switching upon ATP binding; sequences stand for … in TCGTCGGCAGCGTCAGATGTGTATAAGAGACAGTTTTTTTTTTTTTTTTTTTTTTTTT…TC
# measurement-setup: aptamer strand: ATP DNA aptamer (quencher-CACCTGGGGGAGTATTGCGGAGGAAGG + anchor), 100 nM annealed; ATP concentration: 500 uM
quantity: switch fluorescence ratio
Write the number on its own, no unit after it.

Answered examples (2):
CCTAATTTGG : 0.974
CAGAGGGGTT : 1

Sure, the documented switch fluorescence ratio for TTAGGGCTCG is 1.01

Sure, the documented switch fluorescence ratio for TGGTAGACGT is 0.968

Sure, the documented switch fluorescence ratio for CGTAGTTCTT is 1.01

Sure, the documented switch fluorescence ratio for TTTTTGTGAG is 1.01

Sure, the documented switch fluorescence ratio for ATCAAGAGGG is 1.01

Sure, the documented switch fluorescence ratio for CCCGGTTTTA is 1.06

Sure, the documented switch fluorescence ratio for CATTTAGCAC is 1.13

* * *

# Tested on: ATP;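 further: ATP exposure 15 min at 22 °C before imaging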
# assay-procedure: switch fluorescence ratio, 500 uM ATP over buffer (Cy3 cluster intensity, sum of 5 cycles each) (fold (ratio)); higher = stronger signal-on switching upon ATP binding; sequences stand for … in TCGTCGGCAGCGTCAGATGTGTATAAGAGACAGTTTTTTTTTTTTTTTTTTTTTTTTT…TC
# measurement-setup: aptamer strand: ATP DNA aptamer (quencher-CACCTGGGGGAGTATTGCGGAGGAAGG + anchor), 100 nM annealed; ATP concentration: 500 uM
quantity: switch fluorescence ratio
Write the number on its own, no unit after it.

CTGTAGGGGG : 1.07
GGAGATCAGG : 1.03
CCTGACTTTG : 0.972
TTGTTACTGG : 1.01
GTAGTTCATG : 0.96

Sure, the documented switch fluorescence ratio for TGTTGGGGAT is 0.983

Sure, the documented switch fluorescence ratio for TTAGGGTGGG is 1.01

Sure, the documented switch fluorescence ratio for TTTTCGGATG is 1.02

Sure, the documented switch fluorescence ratio for GGGGGGGTCC is 0.99

Sure, the documented switch fluorescence ratio for TTAATCGTGT is 0.995

* * *

# Tested on: ATP;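 further: ATP exposure 15 min at 22 °C before imaging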
# assay-procedure: switch fluorescence ratio, 500 uM ATP over buffer (Cy3 cluster intensity, sum of 5 cycles each) (fold (ratio)); higher = stronger signal-on switching upon ATP binding; sequences stand for … in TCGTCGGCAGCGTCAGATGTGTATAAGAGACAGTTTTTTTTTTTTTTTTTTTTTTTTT…TC
# measurement-setup: aptamer strand: ATP DNA aptamer (quencher-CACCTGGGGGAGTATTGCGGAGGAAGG + anchor), 100 nM annealed; ATP concentration: 500 uM
switch fluorescence ratio of 1 or higher: criterion met. Under 1: criterion not met.

// known answers, use as guide
CCTTTGCCCG : criterion met
TGATGGTGTC : criterion not met
ATCAAAGGTG : criterion met
AAATTTGGGA : criterion not met

Alright, here's another sequence for you.
Input: Please check the record ACCAACCGTG and state if its switch fluorescence ratio is at or above 1.
Output: criterion met
